Answer each item with its documented log10(GI50).
Test system: Hs-578T
assay procedure: Cytotoxicity against human Hs578T cells after 48 hrs by SRB assay
Assay type: functional
# values: log10(GI50), units µM

COc1cc(C2CC(c3cccc(Nc4ccnc5cc(Cl)ccc45)c3)=NN2C=O)cc(OC)c1OC (stereo unspecified) | -0.17
O=CN1N=C(c2cccc(Nc3ccnc4cc(Cl)ccc34)c2)CC1c1ccccc1 (stereo unspecified) | -0.54
O=CN1N=C(c2ccc(Nc3ccnc4cc(Cl)ccc34)cc2)CC1c1ccc(Cl)cc1 (stereo unspecified) | 0.59

Hey, can you go through the list below and give me log10(GI50) for every item?
1. Cc1ccc(C2CC(c3ccc(Nc4ccnc5cc(Cl)ccc45)cc3)=NN2C=O)cc1 (stereo unspecified)
2. O=CN1N=C(c2ccc(Nc3ccnc4cc(Cl)ccc34)cc2)CC1c1ccccc1 (stereo unspecified)
3. COc1cccc2c1C(=O)c1c(O)c3c(c(O)c1C2=O)C[C@@](O)(C(=O)CO)C[C@@H]3O[C@H]1C[C@H](N)[C@H](O)[C@H](C)O1 [DOXORUBICIN]
4. COc1ccc(C2CC(c3cccc(Nc4ccnc5cc(Cl)ccc45)c3)=NN2C=O)cc1 (stereo unspecified)

1. 0.75
2. 0.58
3. -0.48
4. -0.44

Hi team, please reply with log10(GI50) for each item in this list.
1. O=CN1N=C(c2cccc(Nc3ccnc4cc(Cl)ccc34)c2)CC1c1ccc(Cl)cc1 (stereo unspecified)
2. COc1cc(C2CC(c3ccc(Nc4ccnc5cc(Cl)ccc45)cc3)=NN2C=O)cc(OC)c1OC (stereo unspecified)

0.29
0.51
